# experiment.description: Toxicity in standardized culture assay
# condition.context: human
measured.endpoint: CC50 (µg/mL)
Give the number; µg/mL is assumed, so skip it.

Below are worked cases with known answers.
compound	unit.of.measure	CC50
CO[C@H]1C=C/C(=C/C#N)[C@@H](O[C@@H]2O[C@H](CO)[C@@H](O)[C@H](O)[C@H]2O)C1 [Compound 1, Menisdaurin B]	µg/mL	178
N#C/C=C1/CC[C@H](O)C[C@@H]1O[C@@H]1O[C@H](CO)[C@@H](O)[C@H](O)[C@H]1O [Compound 3, Menisdaurin D]	µg/mL	182

Lookup: # get_value(readout='CC50', item= CO[C@H]1CC/C(=C/C#N)[C@@H](O[C@@H]2O[C@H](CO)[C@@H](O)[C@H](O)[C@H]2O)C1 [Compound 2, Menisdaurin C] )
Found: 165

Lookup: Quick one: CC50 for N#C/C=C1/C=C[C@H](O)C[C@@H]1O[C@@H]1O[C@H](CO)[C@@H](O)[C@H](O)[C@H]1O [Compound 5, menisdaurin] ?
Found: 57.8

Lookup: Form field: reported CC50 of N#C/C=C1\C=C[C@H](O)C[C@@H]1O [Compound 6, coclauril]
Found: 83.9
